target_or_test_system: CD28 (Homo sapiens, UniProt P10747)
test: CD28 costimulation via Fc receptor or PD-L1 dependent cross-linking (Jurkat/IL2 + K562/OKT3 +/- PD-L1)
Format: cell-based
Parameters: host or cells: Jurkat cells expressing an IL-2-luciferase reporter
stated_conditions: K562/0KT3 aAPC; 0.6 nM; luciferase signal
Below, each entry is listed with its recorded CD28 costimulation, FcR Dependent Cross-Linking (No PD-L1), 0.6 nM.
metric: CD28 costimulation, FcR Dependent Cross-Linking (No PD-L1), 0.6 nM

1) E35D/M47I/L70M: variant CD80 IgV-Fc, IgV SEQ ID NO:199 (SEQ ID NO:125 in b995) (protein) VIHVTKEVKEVATLSCGHNVSVEELAQTRIYWQKDKKMVLTMMSGDINIWPEYKNRTIFDITNNLSIVIMALRPSDEGTYECVVLKYEKDAFKREHLAEVTLSVKAD: 1609
2) E35D/M47L: variant CD80 IgV-Fc, IgV SEQ ID NO:208 (protein) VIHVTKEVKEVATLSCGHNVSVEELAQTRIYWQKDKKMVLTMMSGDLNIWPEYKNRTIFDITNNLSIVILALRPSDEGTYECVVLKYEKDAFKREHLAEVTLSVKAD: 2119
3) E35D/D46V/L85Q: variant CD80 IgV-Fc, IgV SEQ ID NO:203 (protein) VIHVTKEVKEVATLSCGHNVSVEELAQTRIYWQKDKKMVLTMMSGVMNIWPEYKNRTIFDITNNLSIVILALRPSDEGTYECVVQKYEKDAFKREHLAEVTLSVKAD: 1880
